# ASSAY_EXPLANATION: in vitro
# MEASUREMENT_CONTEXT: human, Huh7 CC50
MEASURED_ATTRIBUTE: CC50 (µM)
Give bare numbers, in µM.

Ask: Returns the measured CC50 for the input molecule. Input: CNCCC=C1c2ccccc2CCc2ccccc21
Result: 16.8

* * *

# System: SARS2-S pseudovirus
# ASSAY_EXPLANATION: in vitro
# MEASUREMENT_CONTEXT: human
MEASURED_ATTRIBUTE: selectivity ratio
Answers are plain numbers.

Answered cases to consult:
[[record]]
compound = "CN(C)CCOc1ccc(/C(=C(/CCCl)c2ccccc2)c2ccccc2)cc1 [Toremifene]"
subject_of_test = "SARS2-S pseudovirus"
measured = 8.92

[[record]]
compound = "OCCN1CCN(CCC=C2c3ccccc3Sc3ccc(C(F)(F)F)cc32)CC1 [Flupenthixol]"
subject_of_test = "SARS2-S pseudovirus"
measured = 11.7

[[record]]
compound = "CNCCC=C1c2ccccc2CCc2ccccc21 [Nortriptyline]"
subject_of_test = "SARS2-S pseudovirus"
measured = 14.5

[[record]]
compound = "OCCN1CCN(CCCN2c3ccccc3Sc3ccc(Cl)cc32)CC1 [Perphenazine]"
subject_of_test = "SARS2-S pseudovirus"
measured = 14.7

[[record]]
compound = "CN(C)[C@@H](CCOc1cccc2ccccc12)c1ccccc1 [Dapoxetine]"
subject_of_test = "SARS2-S pseudovirus"
measured = 13.1

[[record]]
compound = "COc1cc(Nc2c(C#N)cnc3cc(OCCCN4CCN(C)CC4)c(OC)cc23)c(Cl)cc1Cl [Bosutinib]"
subject_of_test = "SARS2-S pseudovirus"
measured = 13.6


Pending compound:
Ask: Returns the measured selectivity ratio for the input compound. Input: CC(CN(C)C)CN1c2ccccc2Sc2ccccc21 (stereo not drawn) [Trimeprazine]
Result: 14.2

* * *

# ASSAY_EXPLANATION: in vitro
# MEASUREMENT_CONTEXT: human, Huh-7 CC50, Table 2; mean ± SEM from two independent experiments
I'd be grateful if you could share measured CC50 for these entries.
One number for each entry, in µM.

Answered cases to consult:
[[record]]
compound = "COc1cc(Nc2c(C#N)cnc3cc(OCCCN4CCN(C)CC4)c(OC)cc23)c(Cl)cc1Cl"
measured = 13.6

[[record]]
compound = "CC(CN(C)C)CN1c2ccccc2Sc2ccccc21 (centres unmarked)"
measured = 16.7


Pending compound:
Ask: Returns the measured CC50 for the input compound. Input: OCCN1CCN(CCC=C2c3ccccc3Sc3ccc(C(F)(F)F)cc32)CC1
Result: 14.7

* * *

# System: SARS-CoV-2 (WIV04)
# Assay type: cell-based
MEASURED_ATTRIBUTE: Activity against native SARS-CoV-2 replication (in words)

[[record]]
compound = "OCCN1CCN(CCCN2c3ccccc3Sc3ccc(Cl)cc32)CC1 [Perphenazine]"
measured = "failed to show activity"

[[record]]
compound = "CC(CN1c2ccccc2Sc2ccccc21)N(C)C (stereo not drawn) [Promethazine]"
measured = "failed to show activity"

[[record]]
compound = "CNCCC=C1c2ccccc2CCc2ccccc21 [Nortriptyline]"
measured = "failed to show activity"


* * *

I'd be grateful if you could share measured log10 of EC90 for these entries.
# Test system: SARS2-S pseudovirus
# ASSAY_EXPLANATION: microbe, parasite or virus in culture
# MEASUREMENT_CONTEXT: Huh-7, 48 h, read-out: SARS2-S pseudovirus EC90
Use the decimal logarithm of EC90 (µM).

Answered cases to consult:
[[record]]
molecule = "CCCCc1oc2ccccc2c1C(=O)c1cc(I)c(OCCN(CC)CC)c(I)c1"
measured_attribute = "log10 of EC90"
measured = 1.29

[[record]]
molecule = "COc1cc(Nc2c(C#N)cnc3cc(OCCCN4CCN(C)CC4)c(OC)cc23)c(Cl)cc1Cl"
measured_attribute = "log10 of EC90"
measured = 0.19

[[record]]
molecule = "CNCCCC1c2ccccc2C=Cc2ccccc21"
measured_attribute = "log10 of EC90"
measured = 0.86

[[record]]
molecule = "CC(CN(C)C)CN1c2ccccc2Sc2ccccc21 (centres unmarked)"
measured_attribute = "log10 of EC90"
measured = 0.58

[[record]]
molecule = "CNCCC=C1c2ccccc2CCc2ccccc21"
measured_attribute = "log10 of EC90"
measured = 0.72

[[record]]
molecule = "CN(C)[C@@H](CCOc1cccc2ccccc12)c1ccccc1"
measured_attribute = "log10 of EC90"
measured = 1.26

[[record]]
molecule = "COc1cc2ncnc(Nc3ccc(F)c(Cl)c3)c2cc1OCCCN1CCOCC1"
measured_attribute = "log10 of EC90"
measured = 1.31

[[record]]
molecule = "OCCN1CCN(CCC=C2c3ccccc3Sc3ccc(C(F)(F)F)cc32)CC1"
measured_attribute = "log10 of EC90"
measured = 0.94


Provide the reported log10 of EC90 of each entry below, same order.
1. CN(C)CC/C=C1/c2ccccc2Sc2ccc(Cl)cc21
2. CN1CCCC(n2nc(Cc3ccc(Cl)cc3)c3ccccc3c2=O)CC1 (centres unmarked)
3. CC(CN1c2ccccc2Sc2ccccc21)N(C)C (centres unmarked)
4. O=C(O[C@H]1CN2CCC1CC2)N1CCc2ccccc2[C@@H]1c1ccccc1

Result:
1: 1.38; 2: 0.75; 3: 1.26; 4: 0.95

Ask: Returns the measured log10 of EC90 for the input molecule. Input: CN(C)CCOc1ccc(/C(=C(/CCCl)c2ccccc2)c2ccccc2)cc1
Result: 1.11

* * *

# Tested on: SARS2-S pseudovirus
# ASSAY_EXPLANATION: in vitro
# MEASUREMENT_CONTEXT: human
MEASURED_ATTRIBUTE: selectivity ratio

Answered cases to consult:
[[record]]
compound = "CN(C)CC/C=C1/c2ccccc2Sc2ccc(Cl)cc21"
measured_attribute = "selectivity ratio"
measured = "> 11.9"

[[record]]
compound = "CNCCCC1c2ccccc2C=Cc2ccccc21"
measured_attribute = "selectivity ratio"
measured = "> 13.5"

[[record]]
compound = "CC(CN1c2ccccc2Sc2ccccc21)N(C)C (centres unmarked)"
measured_attribute = "selectivity ratio"
measured = "> 20.8"


Provide the reported selectivity ratio of each entry below, same order.
1. O=C(O[C@H]1CN2CCC1CC2)N1CCc2ccccc2[C@@H]1c1ccccc1
2. CN1CCCC(n2nc(Cc3ccc(Cl)cc3)c3ccccc3c2=O)CC1 (centres unmarked)

Result:
["> 9.66", "> 11.3"]
